# experimentalSystem: human PD-L1 (Homo sapiens (Human), UniProt Q9NZQ7)
# Sequence (Q9NZQ7 19-239): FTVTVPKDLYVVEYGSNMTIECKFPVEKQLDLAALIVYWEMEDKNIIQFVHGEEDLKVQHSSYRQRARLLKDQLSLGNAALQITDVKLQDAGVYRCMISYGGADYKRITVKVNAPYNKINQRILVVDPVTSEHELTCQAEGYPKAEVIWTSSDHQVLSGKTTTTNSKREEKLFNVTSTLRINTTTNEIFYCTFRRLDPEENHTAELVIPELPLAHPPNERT
# methodNotes: Enzyme-Linked Immunosorbent Assay (ELISA), PD-1/PD-L1 binding
# runConditions: plate-coated human PD-L1, biotinylated Human PD-1, absorbance at 450 nm
pIC50: −log10 of the molar value.
quantity: pIC50

smilesStr	quantity	assayResult
COc1cc(-c2cccc(-c3cccc(NC(=O)c4cn(C)c(=O)n(C)c4=O)c3Cl)c2Cl)cc(F)c1CN[C@H]1CCOC1	pIC50	> 8.00
COc1cc(-c2cccc(-c3cccc(Nc4nccc5nccnc45)c3C)c2Cl)cc(F)c1CN[C@H]1CCOC[C@H]1O	pIC50	> 8.00
COc1cc(-c2cccc(-c3cccc(Nc4nccc5nccnc45)c3C)c2Cl)cc(F)c1CNCC(C)(C)C(N)=O	pIC50	> 8.00
COc1cc(-c2cccc(-c3cccc(NC(=O)c4cn(C)c(=O)n(C)c4=O)c3Cl)c2Cl)cc(F)c1CN[C@@H]1COC[C@@H]1O	pIC50	> 8.00
COc1cc(-c2cccc(-c3cccc(NC(=O)c4c[nH]c(=O)n(C)c4=O)c3C)c2Cl)cc(F)c1CN[C@H]1CCOC[C@H]1OC	pIC50	> 8.00
COc1cc(-c2cccc(-c3cccc(NC(=O)c4cn(C)c(=O)n(C)c4=O)c3C)c2C)cc(F)c1CN[C@H]1CCOC[C@@H]1O	pIC50	> 8.00

----------
# experimentalSystem: human PD-L1 (Homo sapiens (Human), UniProt Q9NZQ7)
# methodNotes: Enzyme-Linked Immunosorbent Assay (ELISA), PD-1/PD-L1 binding
# runConditions: PD-1/PD-L1 ELISA, human PD-L1 coated plates, Table 1
quantity: IC50

compound	experimentalSystem	quantity	assayResult
COc1cc(-c2cccc(-c3cccc(NC(=O)c4c[nH]c(=O)n(C)c4=O)c3C)c2C)cc(F)c1CNC[C@@H](C)O [Example 1.222]	human PD-L1 (Homo sapiens (Human), UniProt Q9NZQ7)	IC50	< 10 nM
COc1cc(-c2cccc(-c3cccc(NC(=O)c4c[nH]c(=O)n(C)c4=O)c3C)c2C)cc(F)c1CN[C@H]1CCC(=O)NC1 [Example 1.230]	human PD-L1 (Homo sapiens (Human), UniProt Q9NZQ7)	IC50	< 10 nM
COc1cc(-c2cccc(-c3cccc(NC(=O)c4ccccn4)c3C)c2C)cc(F)c1CN1CC(O)C1 [Example 1.388]	human PD-L1 (Homo sapiens (Human), UniProt Q9NZQ7)	IC50	< 10 nM
COc1cc(-c2cccc(-c3cccc(Nc4nccc5nccnc45)c3C)c2C)cc(F)c1CN[C@@H]1CNC(=O)C1 [Example 1.206]	human PD-L1 (Homo sapiens (Human), UniProt Q9NZQ7)	IC50	< 10 nM
COc1cc(-c2cccc(-c3cccc(NC(=O)c4ccccn4)c3C)c2C)cc(F)c1CN1CC[C@@H](C(=O)O)C1 [Example 1.366]	human PD-L1 (Homo sapiens (Human), UniProt Q9NZQ7)	IC50	< 10 nM
COc1cc(-c2cccc(-c3cccc(Nc4cccc5ncn(C)c(=O)c45)c3C)c2C)cc(F)c1CN1CC(C(=O)O)C1 [Example 1.287]	human PD-L1 (Homo sapiens (Human), UniProt Q9NZQ7)	IC50	< 10 nM
COc1cc(-c2cccc(-c3cccc(Nc4nccc5c4OCCN5)c3C)c2C)cc(F)c1CN1CC(C(=O)O)C1 [Example 1.244]	human PD-L1 (Homo sapiens (Human), UniProt Q9NZQ7)	IC50	10 to 1000 nM
COc1cc(-c2cccc(-c3cccc(Nc4ccnc5cccnc45)c3C)c2C)cc(F)c1CN1CC(C(=O)O)C1 [Example 1.263]	human PD-L1 (Homo sapiens (Human), UniProt Q9NZQ7)	IC50	10 to 1000 nM
COc1cc(-c2cccc(-c3cccc(NC(=O)c4ccccn4)c3C)c2C)cc(F)c1CN1CC(C(=O)O)C1 [Example 1.381]	human PD-L1 (Homo sapiens (Human), UniProt Q9NZQ7)	IC50	< 10 nM
COc1cc(-c2cccc(-c3cccc(NC(=O)c4cncn(C)c4=O)c3C)c2C)cc(F)c1CN[C@@H]1CCC[C@@H]1O [Example 1.199]	human PD-L1 (Homo sapiens (Human), UniProt Q9NZQ7)	IC50	< 10 nM
COc1cc(-c2cccc(-c3cccc(Nc4nccc5nccnc45)c3C)c2C)cc(F)c1CNC[C@@H](C)O [Example 1.208]	human PD-L1 (Homo sapiens (Human), UniProt Q9NZQ7)	IC50	< 10 nM
COc1cc(-c2cccc(-c3cccc(NC(=O)c4ccccn4)c3C)c2C)cc(F)c1CNC(CO)(CO)CO [Example 1.379]	human PD-L1 (Homo sapiens (Human), UniProt Q9NZQ7)	IC50	< 10 nM
COc1cc(-c2cccc(-c3cccc(NC(=O)C4CN(CC(=O)O)CCO4)c3C)c2C)cc(F)c1CN (centres unmarked) [Example 1.314]	human PD-L1 (Homo sapiens (Human), UniProt Q9NZQ7)	IC50	10 to 1000 nM
COc1cc(-c2cccc(-c3cccc(NC(=O)c4ccncn4)c3C)c2C)cc(F)c1CNCCCC(=O)O [Example 1.345]	human PD-L1 (Homo sapiens (Human), UniProt Q9NZQ7)	IC50	< 10 nM
